# system_under_test: UniProt:P03372
# Sequence (P03372 whole entry): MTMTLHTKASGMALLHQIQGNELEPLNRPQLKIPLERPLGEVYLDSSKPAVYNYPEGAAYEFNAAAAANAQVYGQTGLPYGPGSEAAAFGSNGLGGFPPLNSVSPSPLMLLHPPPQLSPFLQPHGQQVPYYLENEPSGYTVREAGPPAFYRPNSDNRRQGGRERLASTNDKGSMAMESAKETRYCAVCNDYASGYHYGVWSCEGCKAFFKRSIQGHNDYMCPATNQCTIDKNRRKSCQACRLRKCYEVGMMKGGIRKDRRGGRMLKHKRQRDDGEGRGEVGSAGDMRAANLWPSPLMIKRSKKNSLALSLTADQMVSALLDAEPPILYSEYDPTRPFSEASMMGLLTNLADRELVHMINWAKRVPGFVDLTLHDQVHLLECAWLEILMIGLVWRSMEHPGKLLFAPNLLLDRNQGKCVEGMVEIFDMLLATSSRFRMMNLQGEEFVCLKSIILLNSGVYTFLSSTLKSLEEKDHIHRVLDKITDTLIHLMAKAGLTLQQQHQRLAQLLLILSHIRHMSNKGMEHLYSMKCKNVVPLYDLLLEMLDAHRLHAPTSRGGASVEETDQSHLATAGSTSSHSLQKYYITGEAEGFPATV
# test_protocol: In-cell western blot analysis of relative ER percentage (Compounds B1-B278)
# Format: cell-based
# settings: ER degradation, 16 hours, read-out: ICW DC50
Parameter DC50: see the listing below.

Example entries and their recorded answers appear below.
• C[C@@H]1Cc2c([nH]c3ccccc23)[C@@H](c2cnc(N3CCC4(CCC(CN5CCN6c7cc8c(cc7OC[C@@H]6C5)C(=O)N(C5CCC(=O)NC5=O)C8)CC4)CC3)nc2)N1CC(C)(C)F (stereo partly shown) = 10 to 100 nM
• C[C@@H]1Cc2c([nH]c3ccccc23)[C@@H](c2cnc(N3CCC4(CC3)CC(CN3CCN5c6cc7c(cc6OC[C@@H]5C3)C(=O)N(C3CCC(=O)NC3=O)C7)CO4)nc2)N1CC(F)(F)CO (stereo partly shown) = < 10 nM
• C[C@@H]1Cc2c([nH]c3ccccc23)[C@@H](c2c(F)cc(N3CC[C@H](CN4CCN5c6ccc7c(c6OC[C@H]5C4)CN(C4CCC(=O)NC4=O)C7=O)C3)cc2F)N1CC(F)(F)CO (stereo partly shown) = 10 to 100 nM
• C[C@@H]1Cc2c([nH]c3ccccc23)[C@@H](c2cnc(N3CCC4(CCC(N5CCN6c7cc8c(cc7OC[C@@H]6C5)C(=O)N(C5CCC(=O)NC5=O)C8)CC4)CC3)nc2)N1CC(C)(C)F (stereo partly shown) = < 10 nM
• C[C@@H]1Cc2c([nH]c3ccccc23)[C@@H](c2cnc(N3CCC4(CCC(N5CCN6c7ccc8c(c7OC[C@H]6C5)CN(C5CCC(=O)NC5=O)C8=O)CC4)CC3)nc2)N1CC(F)F (stereo partly shown) = > 100 nM
• C[C@@H]1Cc2c([nH]c3ccccc23)[C@@H](c2cnc(N3CC4(CCC(CN5CCN6c7ccc8c(c7N(C)C[C@@H]6C5)CN(C5CCC(=O)NC5=O)C8=O)CC4)C3)nc2)N1CC(F)F (stereo partly shown) = 10 to 100 nM
• COc1cc(N2CCC3(CC2)OCC(CN2CCN4c5ccc6c(c5OC[C@@H]4C2)CN([C@@H]2CCC(=O)NC2=O)C6=O)CO3)ccc1[C@@H]1c2[nH]c3ccccc3c2C[C@@H](C)N1CC(F)F = 10 to 100 nM
• C[C@@H]1Cc2c([nH]c3ccccc23)[C@@H](c2cnc(N3CCC(OCCN4CCN5c6cc7c(cc6OC[C@@H]5C4)C(=O)N([C@H]4CCC(=O)NC4=O)C7)CC3)nc2)N1CC(F)F = 10 to 100 nM

Record request: DC50 value, item C[C@@H]1Cc2c([nH]c3ccccc23)[C@@H](c2cnc(N3CC4(CCC(CN5CCN6c7ccc8c(c7OC[C@H]6C5)CN(C5CCC(=O)NC5=O)C8=O)CC4)C3)nc2)N1CC(C)(C)F (stereo partly shown)
< 10 nM

Requested read-out: DC50. Entry: C[C@@H]1Cc2c([nH]c3ccccc23)[C@@H](c2ccc(N3CCC4(CC3)CC(CN3CCC5(CC3)COc3c5ccc5c3CN(C3CCC(=O)NC3=O)C5=O)CO4)cn2)N1CC(F)(F)F (stereo partly shown)
< 10 nM

Query: DC50; subject: C[C@@H]1Cc2c([nH]c3ccccc23)[C@@H](c2c(F)cc(C3CCN(C(=O)CN4CCN5c6cc7c(cc6OC[C@@H]5C4)C(=O)N(C4CCC(=O)NC4=O)C7)CC3)cc2F)N1CC(F)F (stereo partly shown)
10 to 100 nM

Look up DC50 for this compound: C[C@@H]1Cc2c([nH]c3ccccc23)[C@@H](c2cnc(N3CC4(CCC(CN5CCN6c7ccc8c(c7OC[C@@H]6C5)CN(C5CCC(=O)NC5=O)C8=O)CC4)C3)nc2)N1CC(F)F (stereo partly shown)
10 to 100 nM

For the compound COc1c2c(cc3c1CN(C1CCC(=O)NC1=O)C3=O)CN(CC(=O)N1CCC3(CC1)CCN(c1cc(F)c([C@@H]4c5[nH]c6ccccc6c5C[C@@H](C)N4CC(F)F)c(F)c1)CC3)C2 (stereo partly shown) , what DC50 is on record?
10 to 100 nM

Returns the measured DC50 for the input compound. Input: C[C@@H]1Cc2c([nH]c3ccccc23)[C@@H](c2cnc(N3CCC4(CC3)CC(CN3CCN5c6ccc7c(c6OC[C@H]5C3)CN(C3CCC(=O)NC3=O)C7=O)C4)nc2)N1CC(F)(F)CO (stereo partly shown)
10 to 100 nM

Could you tell me which DC50 is on file for C[C@@H]1Cc2c([nH]c3ccccc23)[C@@H](c2cnc(N3CC4(CC(CN5CCN6c7ccc8c(c7OC[C@H]6C5)CN(C5CCC(=O)NC5=O)C8=O)C4)C3)nc2)N1CC(C)(F)F (stereo partly shown) ?
10 to 100 nM

Request the reported DC50 associated with COc1cc(N2CCC3(CC2)OCC(CN2CCC4(CC2)COc2c4ccc4c2CN(C2CCC(=O)NC2=O)C4=O)CO3)ccc1[C@@H]1c2[nH]c3ccccc3c2C[C@@H](C)N1CC(F)F (stereo partly shown)
10 to 100 nM

Query: DC50; subject: C[C@@H]1Cc2c([nH]c3ccccc23)[C@@H](c2cnc(N3CCC4(CCC(CN5CCN6c7cc8c(cc7OC[C@@H]6C5)C(=O)N(C5CCC(=O)NC5=O)C8)CC4)CC3)nc2)N1CC(F)F (stereo partly shown)
10 to 100 nM

Quick one: DC50 for C[C@@H]1Cc2c([nH]c3ccccc23)[C@@H](c2cnc(N3CCC(CCN4CCN5c6ccc7c(c6OC[C@H]5C4)CN(C4CCC(=O)NC4=O)C7=O)CC3)nc2)N1CC(F)F (stereo partly shown) ?
> 100 nM

Recorded DC50 for C[C@@H]1Cc2c([nH]c3ccccc23)[C@@H](c2cnc(N3CCC(CN4CCN5c6ccc7c(c6OC[C@H]5C4)CN(C4CCC(=O)NC4=O)C7=O)CC3)nc2)N1CC(F)F (mixture of isomers) [Compound B255] , please?
> 100 nM

Origin of measurements: patent US20260007681A1
